biological target: Delta-type opioid receptor (Mus musculus) (UniProt P32300); assay: Agonist activity at delta opioid receptor in mouse vas deferens assessed as inhibition of electrically-stimulated muscle contraction at 10000 nM; type: functional, tissue-based; set-up: scale not given: the % may be the effect or the level left
Sequence (P32300 whole entry): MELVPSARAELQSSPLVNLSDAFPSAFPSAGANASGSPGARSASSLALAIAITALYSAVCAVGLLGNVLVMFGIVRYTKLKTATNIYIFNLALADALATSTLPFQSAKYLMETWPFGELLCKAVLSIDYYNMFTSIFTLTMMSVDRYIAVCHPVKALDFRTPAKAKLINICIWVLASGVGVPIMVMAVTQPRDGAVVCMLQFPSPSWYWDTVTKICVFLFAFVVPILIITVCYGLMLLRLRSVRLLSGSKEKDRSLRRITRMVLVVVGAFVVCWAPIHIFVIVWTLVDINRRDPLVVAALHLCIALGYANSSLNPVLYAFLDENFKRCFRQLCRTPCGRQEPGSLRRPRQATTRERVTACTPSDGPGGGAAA
Property Measured: Activity

| Smiles Notation | Activity |
| --- | --- |
| Cc1cc(C)cc(C[C@H](NC(=O)[C@@H]2CCCN2C(=O)[C@@H](N)Cc2c(C)cc(O)cc2C)C(=O)N[C@@H](Cc2ccccc2)C(N)=O)c1 | > 7.1% |

stdin: I'd like to know its Activity. The molecule in question is "Cc1ccccc1C[C@H](NC(=O)[C@@H]1CCCN1C(=O)[C@@H](N)Cc1c(C)cc(O)cc1C)C(=O)N[C@@H](Cc1ccccc1)C(N)=O"
stdout: 0%

stdin: Then this molecule: "Cc1cc(C)c(C[C@H](NC(=O)[C@@H]2CCCN2C(=O)[C@@H](N)Cc2ccc(O)cc2)C(=O)N[C@@H](Cc2ccccc2)C(N)=O)c(C)c1"
stdout: > 36.2%
